# tested target: human CCR4 (Homo sapiens, UniProt P51679)
# Construct: membrane fraction used
# Sequence (P51679 whole entry): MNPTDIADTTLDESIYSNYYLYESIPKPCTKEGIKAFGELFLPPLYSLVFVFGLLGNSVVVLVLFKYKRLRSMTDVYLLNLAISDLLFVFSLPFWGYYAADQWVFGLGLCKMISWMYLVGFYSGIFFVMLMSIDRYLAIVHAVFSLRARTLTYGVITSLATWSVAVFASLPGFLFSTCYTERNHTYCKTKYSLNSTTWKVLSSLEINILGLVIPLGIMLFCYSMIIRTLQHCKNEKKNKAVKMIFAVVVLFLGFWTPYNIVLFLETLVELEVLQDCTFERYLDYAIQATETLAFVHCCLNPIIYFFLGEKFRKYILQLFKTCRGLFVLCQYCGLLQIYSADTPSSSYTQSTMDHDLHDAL
# assay details: [35S]GTPγS binding test via CCR4 (human MDC-stimulated, human CCR4 expressing cell line membrane fraction)
# settings: membrane fraction of human CCR4 expressing B300-16 cells, room temperature 1 hour 30 minutes, read-out: inhibitory activity value (IC50)
endpoint: IC50

Below, each entry is followed by its recorded IC50 result.
INSERT INTO results (compound, tested_target, endpoint, endpoint_result) VALUES
  ('CN(C(=O)[C@@H]1CCCN1C)C1CCN(c2nc(Nc3ccc(Cl)cc3F)c3ccc(C#N)cc3n2)CC1', 'human CCR4 (Homo sapiens, UniProt P51679)', 'IC50', '≤ 100 nM'),
  ('CCN(C(=O)[C@@H]1CCCN1C)C1CCN(c2nc(Nc3ccc(Cl)cc3F)c3cc(F)ccc3n2)CC1', 'human CCR4 (Homo sapiens, UniProt P51679)', 'IC50', '≤ 100 nM'),
  ('COc1cc2nc(N3CCC(N(C)C(=O)[C@H]4CCCCN4)CC3)nc(Nc3ccc(Cl)cc3F)c2cc1OC', 'human CCR4 (Homo sapiens, UniProt P51679)', 'IC50', '≤ 100 nM');

List reported IC50 for each of these molecules:
1. COc1cc2nc(N3CCC(N(C(=O)[C@H]4CCCCN4)C4CCC4)CC3)nc(Nc3ccc(Cl)cc3F)c2cc1OC
2. CCN(C(=O)[C@@H]1CCCN1C)C1CCN(c2nc(Nc3ccc(Cl)cc3)c3cc(Br)ccc3n2)CC1
3. CCN(C(=O)[C@@H]1CCCN1)C1CCN(c2nc(Nc3ccc(Cl)cc3F)c3cc(OC)c(OC)cc3n2)CC1
4. CN(C(=O)[C@H]1CCCN1C)C1CCN(c2nc(Nc3ccc(Cl)cc3F)c3cc(F)ccc3n2)CC1

stdout:
≤ 100 nM
≤ 100 nM
≤ 100 nM
≤ 100 nM

====

# tested target: human CCR4 (Homo sapiens, UniProt P51679)
# Construct: expressed in transfected cells; membrane fraction used
# assay details: [35S]GTPγS binding test via CCR4 (human MDC-stimulated, human CCR4 expressing cell line membrane fraction)
# Type: biochemical
# settings: membrane fraction of human CCR4 expressing B300-16 cells, room temperature 1 hour 30 minutes, read-out: inhibitory activity value (IC50)
pIC50: −log10 of the molar value.
endpoint: pIC50

INSERT INTO measurements (compound, tested_target, endpoint_result) VALUES
  ('CN(C(=O)[C@H]1CCCN1)C1CCN(c2nc(NCc3ccc(Cl)cc3F)c3cnn(CC(F)(F)F)c3n2)CC1', 'human CCR4 (Homo sapiens, UniProt P51679)', '≥ 7.00'),
  ('CCN(C(=O)[C@H]1CCCN1)C1CCN(c2nc(Nc3ccc(Cl)cc3)c3cc(Br)ccc3n2)CC1', 'human CCR4 (Homo sapiens, UniProt P51679)', '≥ 7.00'),
  ('CCN(C(=O)[C@H]1CCCN1)C1CCN(c2nc(Nc3ccc(Cl)cc3F)c3ccc(C#N)cc3n2)CC1', 'human CCR4 (Homo sapiens, UniProt P51679)', '≥ 7.00'),
  ('CN(C(=O)[C@@H]1CCCN1)C1CCN(c2nc(Nc3ccc(Cl)cc3F)c3cnn(CC(F)(F)F)c3n2)CC1', 'human CCR4 (Homo sapiens, UniProt P51679)', '≥ 7.00'),
  ('CN(C(=O)[C@H]1CCCN1)C1CCN(c2nc(Nc3ccc(Cl)cc3F)c3cnn(CC(F)(F)F)c3n2)CC1', 'human CCR4 (Homo sapiens, UniProt P51679)', '≥ 7.00');

# batch size: 6; output pIC50 per entry
1. CCN(C(=O)[C@H]1CCCN1)C1CCN(c2nc(Nc3ccc(Cl)cc3F)c3cc(F)c(OC)cc3n2)CC1
2. CCN(C(=O)[C@@H]1CCCN1)C1CCN(c2nc(Nc3ccc(Cl)cc3)c3cc(F)ccc3n2)CC1
3. CCN(C(=O)[C@@H]1CCCN1C)C1CCN(c2nc(Nc3ccc(Cl)cc3)c3cc(F)ccc3n2)CC1
4. CN(C(=O)[C@H]1CCCN1C)C1CCN(c2nc(Nc3ccc(Cl)cc3F)c3cnn(CC(F)(F)F)c3n2)CC1
5. COc1cc2nc(N3CCC(N(C)C(=O)[C@@H]4CCCN4C)CC3)nc(Nc3ccc(Cl)cc3F)c2cc1F
6. COc1cc2nc(N3CCC(N(C(=O)[C@H]4CCCN4C)C4CC4)CC3)nc(Nc3ccc(Cl)cc3F)c2cc1OC

stdout:
1: ≥ 7.00; 2: ≥ 7.00; 3: ≥ 7.00; 4: ≥ 7.00; 5: ≥ 7.00; 6: ≥ 7.00

====

Hi there, I'd appreciate the recorded IC50 for every entry that follows.
# tested target: human CCR4 (Homo sapiens)
# Construct: membrane fraction used
# assay details: [35S]GTPγS binding test via CCR4 (human MDC-stimulated, human CCR4 expressing cell line membrane fraction)
# settings: membrane fraction of human CCR4 expressing B300-16 cells, room temperature 1 hour 30 minutes, read-out: inhibitory activity value (IC50)

Take a look at these entries with their results.
INSERT INTO assay_data (compound, endpoint_result) VALUES
  ('CN(C(=O)[C@H]1CCCN1C)C1CCN(c2nc(Nc3ccc(Cl)cc3F)c3cc(Br)ccc3n2)CC1', '≤ 100 nM'),
  ('COc1cc2c(Nc3ccc(Cl)cc3F)nc(N3CCC(N(C)C(=O)[C@@H]4CCCN4C)CC3)nc2cc1F', '≤ 100 nM');

Could you report IC50 for every entry in the following list?
1. CN(C(=O)[C@@H]1CCCN1)C1CCN(c2nc(Nc3ccc(Cl)cc3)c3cc(F)ccc3n2)CC1
2. CN(C(=O)[C@@H]1CCCN1C)C1CCN(c2nc(Nc3ccc(Cl)cc3)c3cc(F)ccc3n2)CC1
3. CN(C(=O)[C@@H]1CCCN1)C1CCN(c2nc(Nc3ccc(Cl)cc3)c3cc(Br)ccc3n2)CC1
4. CN(C(=O)[C@@H]1CCCN1C)C1CCN(c2nc(Nc3ccc(Cl)cc3F)c3cc(Br)ccc3n2)CC1
5. CN(C(=O)[C@H]1CCCN1)C1CCN(c2nc(Nc3ccc(Cl)cc3F)c3ccc(C#N)cc3n2)CC1

stdout:
≤ 100 nM
≤ 100 nM
≤ 100 nM
≤ 100 nM
≤ 100 nM

All figures here come from patent US7790884B2.
